targetOfAssay: JAK2 JH2 503-827-His (Homo sapiens, UniProt O60674)
Construct: JAK2 JH2 503-827-His; His (C)
Sequence (O60674 503-827): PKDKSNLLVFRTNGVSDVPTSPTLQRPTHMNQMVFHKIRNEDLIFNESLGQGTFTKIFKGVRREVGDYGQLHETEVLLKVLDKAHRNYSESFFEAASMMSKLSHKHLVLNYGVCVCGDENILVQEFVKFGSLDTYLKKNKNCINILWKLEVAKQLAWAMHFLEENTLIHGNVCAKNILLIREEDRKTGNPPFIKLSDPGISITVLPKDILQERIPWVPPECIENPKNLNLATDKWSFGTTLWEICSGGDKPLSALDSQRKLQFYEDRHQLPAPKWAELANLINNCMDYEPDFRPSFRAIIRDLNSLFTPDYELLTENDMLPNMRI
experimentalProtocol: Fluorescence polarization competition assay (ATP vs Bodipy FL JNJ-7706621 tracer)
Assay type: binding
measurementConditions: JAK2 JH2, ATP competing with tracer, with MgCl2
pIC50: −log10 of the molar value.
recordedEndpoint: pIC50

molecule	valueReported
Nc1ncnc2c1ncn2[C@@H]1O[C@H](COP(=O)(O)OP(=O)(O)OP(=O)(O)O)[C@@H](O)[C@H]1O	3.99

###

targetOfAssay: JAK3 JH2 (Homo sapiens, UniProt P52333)
Construct: JAK3 JH2 (residues 511–790) was cloned into the pFASTBAC1 vector (Invitrogen) with a C-terminal His6 tag; His6 (C)
Sequence (P52333 511-790): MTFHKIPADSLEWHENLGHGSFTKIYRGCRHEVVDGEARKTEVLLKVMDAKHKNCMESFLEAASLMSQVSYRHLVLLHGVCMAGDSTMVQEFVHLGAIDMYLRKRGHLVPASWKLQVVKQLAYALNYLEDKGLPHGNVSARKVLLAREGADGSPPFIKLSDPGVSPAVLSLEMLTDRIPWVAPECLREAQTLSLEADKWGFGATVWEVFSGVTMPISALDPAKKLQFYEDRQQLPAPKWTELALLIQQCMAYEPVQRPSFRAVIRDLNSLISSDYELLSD
experimentalProtocol: Differential scanning fluorimetry (thermal shift)
measurementConditions: 50 nM−1 mM ATP titrated to 3 μM JAK3 JH2; read-out: Kd approximated with DSF
pKd: −log10 of the molar value.
recordedEndpoint: pKd

compound	valueReported
Nc1ncnc2c1ncn2[C@@H]1O[C@H](COP(=O)(O)OP(=O)(O)OP(=O)(O)O)[C@@H](O)[C@H]1O [ATP]	4.39
